# system: PIM2 (Homo sapiens (Human))
# Sequence (Q9P1W9 whole entry): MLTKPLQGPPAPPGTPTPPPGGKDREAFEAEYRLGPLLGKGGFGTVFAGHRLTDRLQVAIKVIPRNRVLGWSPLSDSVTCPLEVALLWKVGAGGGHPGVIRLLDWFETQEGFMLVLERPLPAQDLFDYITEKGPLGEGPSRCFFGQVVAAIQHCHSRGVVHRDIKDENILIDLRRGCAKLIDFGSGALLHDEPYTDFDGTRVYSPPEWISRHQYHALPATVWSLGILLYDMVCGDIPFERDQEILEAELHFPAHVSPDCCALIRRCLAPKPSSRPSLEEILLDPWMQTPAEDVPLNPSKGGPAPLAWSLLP
pIC50: −log10 of the molar value.
readout-name: pIC50

Fc1cc(-c2nnc[nH]2)c2nc(Nc3cccc(Cl)c3)c3ccncc3c2c1 [drawing 2259] :: > 6.00
Fc1ccc(Cl)cc1Nc1nc2c(-c3nnc[nH]3)cccc2c2cnccc12 :: > 7.00
c1cc(-c2nc[nH]n2)c2nc(NCCN3CCOCC3)c3ccncc3c2c1 :: < 5.96
CN(C)CCNc1nc2c(-c3nc[nH]n3)cccc2c2cnccc12 :: < 5.96
Cc1cc(F)ccc1Nc1nc2c(-c3nnc[nH]3)cccc2c2cnccc12 :: > 7.00
Fc1ccc(Nc2nc3c(-c4nc[nH]n4)cccc3c3cnccc23)c(F)c1 :: > 7.00
C#Cc1cccc(Nc2nc3c(-c4nnc[nH]4)cccc3c3cnccc23)c1 :: > 7.00
CCOc1ccc(Nc2nc3c(-c4nnc[nH]4)cccc3c3cnccc23)cc1 :: > 6.30
NS(=O)(=O)c1cccc(Nc2nc3c(-c4nc[nH]n4)cccc3c3cnccc23)c1 :: > 6.30
c1ccc(CCNc2nc3c(-c4nc[nH]n4)cccc3c3cnccc23)cc1 :: > 6.30

###

# system: recombinant human PIM1 (Homo sapiens (Human), UniProt P11309)
# Sequence (P11309 whole entry): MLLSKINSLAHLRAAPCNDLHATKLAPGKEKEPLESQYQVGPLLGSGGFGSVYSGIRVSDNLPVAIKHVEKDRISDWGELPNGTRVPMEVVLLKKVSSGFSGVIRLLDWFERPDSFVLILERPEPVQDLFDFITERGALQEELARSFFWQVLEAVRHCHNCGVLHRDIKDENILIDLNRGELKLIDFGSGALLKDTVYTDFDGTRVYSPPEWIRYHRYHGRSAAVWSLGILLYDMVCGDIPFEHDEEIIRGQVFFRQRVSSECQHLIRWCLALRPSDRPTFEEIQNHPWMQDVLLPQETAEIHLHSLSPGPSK
# experiment-summary: PIM-1 kinase activity in cell-free in vitro assay
# Format: biochemical
# assay-context: Table 45
readout-name: IC50

Clc1cccc(Nc2nc3c(-c4nnco4)cccc3c3cnccc23)c1 :: > 1100 nM
O=C(NC1CC1)c1cccc2c1nc(Nc1cccc(Cl)c1)c1ccncc12 :: > 1100 nM
COc1cc(Nc2nc3c(-c4nc[nH]n4)cccc3c3cnccc23)ccc1F :: < 100 nM
Fc1ccc(Cl)cc1Nc1nc2c(-c3nnc[nH]3)cccc2c2cnccc12 :: < 100 nM
CNC(=O)c1cccc2c1nc(Nc1cccc(Cl)c1)c1ccncc12 [drawing 2277] :: > 1100 nM
O=C(O)c1cccc2c1nc(Nc1cccc(Cl)c1)c1cnccc12 :: > 1100 nM
c1cc(-c2nc[nH]n2)c2nc(NCc3ccncc3)c3ccncc3c2c1 :: < 500 nM
FC(F)(F)c1cccc(Nc2nc3c(-c4nnc[nH]4)cccc3c3cnccc23)c1 :: < 500 nM
NNC(=O)c1cccc2c1nc(Nc1cccc(Cl)c1)c1ccncc12 :: < 5000 nM
COc1cccc(Nc2nc3c(-c4nnc[nH]4)cccc3c3cnccc23)c1 :: < 100 nM
NC(=O)c1cccc2c1nc(Nc1cccc(F)c1)c1ccncc12 :: < 500 nM
CN(c1ccc(Cl)cc1)c1nc2c(-c3nc[nH]n3)cccc2c2cnccc12 :: < 100 nM
O=C(O)c1cccc2c1nc(Nc1ccccc1)c1ccncc12 [drawing 2273] :: > 1100 nM
OCc1cccc2c1nc(Nc1cccc(Cl)c1)c1ccncc12 :: < 1000 nM
O=C(Nc1ccccc1)c1cccc2c1nc(Nc1cccc(Cl)c1)c1ccncc12 :: > 1100 nM
CN1CCC(CNc2nc3c(-c4nnc[nH]4)cccc3c3cnccc23)CC1 :: < 500 nM
Fc1ccc(Nc2nc3c(-c4nnc[nH]4)cccc3c3cnccc23)c(Cl)c1 :: < 100 nM
Fc1cc(-c2nnc[nH]2)c2nc(Nc3cccc(Cl)c3)c3ccncc3c2c1 [drawing 2269] :: > 1100 nM
Fc1cc(Cl)cc(Nc2nc3c(-c4nnc[nH]4)cccc3c3cnccc23)c1 :: < 100 nM
CN1CCN(c2nc3c(-c4nc[nH]n4)cccc3c3cnccc23)CC1 :: < 1000 nM
OCCNc1nc2c(-c3nnc[nH]3)cccc2c2cnccc12 :: < 500 nM
CN(C)CCNc1nc2c(-c3nc[nH]n3)cccc2c2cnccc12 :: < 5000 nM
O=C(c1cccc2c1nc(Nc1cccc(Cl)c1)c1ccncc12)N1CCOCC1 :: > 1100 nM
O=C(NCc1ccccc1)c1cccc2c1nc(Nc1cccc(Cl)c1)c1ccncc12 :: > 1100 nM
O=C(O)c1cccc2c1nc(Nc1cccc(Cl)c1)c1ccncc12 [drawing 2271] :: > 1100 nM
c1cc(-c2nc[nH]n2)c2nc(NCC3CC3)c3ccncc3c2c1 :: < 100 nM
COCCOc1cccc(Nc2nc3c(-c4nnc[nH]4)cccc3c3cnccc23)c1 :: < 500 nM
COCCOc1cccc(Nc2nc3c(C(N)=O)cccc3c3cnccc23)c1 :: < 500 nM
FC(F)(F)Oc1ccccc1Nc1nc2c(-c3nnc[nH]3)cccc2c2cnccc12 :: < 100 nM
CCOc1ccc(Nc2nc3c(-c4nnc[nH]4)cccc3c3cnccc23)cc1 :: < 100 nM
CN(C)C(=O)c1cccc2c1nc(Nc1cccc(Cl)c1)c1ccncc12 :: > 1100 nM
c1cc(-c2nc[nH]n2)c2nc(NCCN3CCOCC3)c3ccncc3c2c1 :: < 5000 nM
CN(C)CCNC(=O)c1cccc2c1nc(Nc1cccc(Cl)c1)c1ccncc12 :: > 1100 nM
Fc1ccc(Nc2nc3c(-c4nnc[nH]4)cccc3c3cnccc23)cc1Cl :: < 100 nM
Cc1cc(Nc2nc3c(-c4nnc[nH]4)cccc3c3cnccc23)ccc1F :: < 100 nM
COCCOc1ccc(Nc2nc3c(-c4nnc[nH]4)cccc3c3cnccc23)cc1 :: < 500 nM
Clc1ccc(Nc2nc3c(-c4nc[nH]n4)cccc3c3cnccc23)cc1 :: < 100 nM
Clc1cccc(Nc2nc3c(-c4nc[nH]n4)cccc3c3ccncc23)c1 :: < 100 nM
NC(=O)c1cccc2c1nc(Nc1cccc(Cl)c1)c1ccncc12 [drawing 2246] :: < 100 nM
Cc1cc(F)ccc1Nc1nc2c(-c3nnc[nH]3)cccc2c2cnccc12 :: < 100 nM
c1ccc(Nc2nc3c(-c4nnc[nH]4)cccc3c3cnccc23)cc1 :: < 100 nM
Fc1cc(F)cc(Nc2nc3c(-c4nnc[nH]4)cccc3c3cnccc23)c1 :: < 100 nM

###

# system: recombinant human CK2 (Homo sapiens (Human), UniProt P68400)
# Sequence (P68400 whole entry): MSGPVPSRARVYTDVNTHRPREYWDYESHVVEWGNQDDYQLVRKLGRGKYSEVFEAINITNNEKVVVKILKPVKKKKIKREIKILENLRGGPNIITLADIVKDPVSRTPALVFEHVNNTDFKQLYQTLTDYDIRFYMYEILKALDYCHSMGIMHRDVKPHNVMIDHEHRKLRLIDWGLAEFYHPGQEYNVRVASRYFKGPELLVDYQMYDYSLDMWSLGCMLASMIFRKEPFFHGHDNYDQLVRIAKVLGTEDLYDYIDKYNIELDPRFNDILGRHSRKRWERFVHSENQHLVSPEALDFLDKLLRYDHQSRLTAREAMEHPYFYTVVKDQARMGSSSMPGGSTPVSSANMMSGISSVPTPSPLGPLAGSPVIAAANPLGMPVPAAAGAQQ
# Sequence (P67870 whole entry partner): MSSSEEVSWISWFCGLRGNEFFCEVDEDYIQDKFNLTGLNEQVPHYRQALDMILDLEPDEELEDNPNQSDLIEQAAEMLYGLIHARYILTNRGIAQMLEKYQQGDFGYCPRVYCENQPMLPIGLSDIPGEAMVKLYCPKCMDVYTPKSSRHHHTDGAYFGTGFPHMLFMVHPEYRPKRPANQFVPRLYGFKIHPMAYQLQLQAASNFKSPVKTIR
# experiment-summary: CK2 assay (cell-free, 33P-ATP filter plate)
# Format: biochemical
# assay-context: 500 nM compound, cell-free assay; read-out: CK2: % inh 500 nM
readout-name: inhibition at 0.5 µM (%)

N#Cc1ccc2c(c1)nc(NCCC1CCCN1)c1ccsc12 (stereo not drawn) :: 37.1
N#Cc1ccc2c(c1)nc(Oc1ccc3ncccc3c1)c1ccsc12 :: -7.33
CN(c1ccccc1)c1nc2cc(C(=O)O)ccc2c2nccnc12 :: 19.3
Cc1nccn1CCNc1nc2cc(-c3nnn[nH]3)ccc2c2sccc12 :: 62.1
N#Cc1ccc2c(c1)nc(NCCn1ccnc1)c1ccsc12 :: -14.9
O=C(O)c1ccc2c(c1)nc(Nc1ccn[nH]1)c1ccncc12 :: 94.8
O=C(O)c1cccc2c1nc(Nc1ccccc1)c1ccncc12 [drawing 2004] :: -13.5
Cn1cnnc1-c1cccc(Nc2nc3cc(C(=O)O)ccc3c3cnccc23)c1 :: 94.4
CC(=O)NC1CCN(c2nc3cc(C#N)ccc3c3sccc23)C1 (stereo not drawn) :: -8.88
N#Cc1ccc2c(c1)nc(NCC(F)(F)F)c1ccsc12 :: -18.4
O=C(O)c1ccc2c(c1)nc(Nc1cccc(F)c1)c1cccnc12 :: 35
CN(c1ccccc1)c1nc2cc(C(=O)O)ccc2c2cnccc12 :: 89
CC(=O)c1ccc(Oc2nc3cc(C#N)ccc3c3sccc23)cc1 :: -17.9
N#Cc1ccc2c(c1)nc(NC1CCNCC1)c1ccsc12 :: 27.1
Fc1cc(Cl)cc(Nc2nc3cc(-c4nnn[nH]4)ccc3c3ccsc23)c1 :: 45.4
N#Cc1ccc2c(c1)nc(NCc1ccccn1)c1ccsc12 :: 100
CON(C)c1nc2cc(C(=O)O)ccc2c2cnccc12 :: 84.7
CN1CCCC1CNc1nc2cc(C#N)ccc2c2sccc12 (stereo not drawn) :: 0.724
NCc1ccc2c(c1)nc(Nc1cccc(F)c1)c1ccsc12 :: -8.77
CN(CCc1ccccn1)c1nc2cc(C#N)ccc2c2sccc12 :: 44.5
O=C(O)c1ccc2nc(Nc3cccc(Cl)c3)c3ccncc3c2c1 :: 67.8
O=c1[nH]c2ccc(OC(F)(F)F)cc2c2cnccc12 :: 1.22
N#Cc1ccc2c(c1)nc(N1CCC[C@H]1C(N)=O)c1ccsc12 :: 4.42
CCN1CCCC1CNc1nc2cc(C#N)ccc2c2cscc12 (stereo not drawn) :: 20.7

###

# system: recombinant human PIM1 (Homo sapiens (Human), UniProt P11309)
# experiment-summary: PIM-1 kinase activity in cell-free in vitro assay
# Assay type: biochemical
# assay-context: 500 nM compound, cell-free; read-out: PIM-1: % inh 500 nM
Kind request: treat 10% as inclusive, so inhibition at 0.5 µM at 10% or higher is true (1), anything lower is false (0).

CCOc1cccc(Nc2nc3cc(C(=O)O)ccc3c3sccc23)c1 :: true (1)
O=C(c1cccc(Nc2nc3cc(-c4nnn[nH]4)ccc3c3sccc23)c1)N1CCOCC1 :: true (1)
O=C(NCCCO)c1ccc2c(c1)nc(NCCCO)c1ccsc12 :: false (0)
O=C(O)c1ccc2c(c1)nc(Nc1cc(Cl)ccc1F)c1ccsc12 :: true (1)

Provenance of the data: patent US8168651B2
